System: HL-60(TB) leukemia
run-description: NCI-60 one-dose screen, 48 h
run-conditions: 10 µM unless noted
About 83,000 compounds went through this panel and 20% of them were active in at least one assay; those are over-represented in the sample as a whole. Calls of active or inactive are those of the source. Rule for the calls: active = growth percent below 10; inactive = the rest.
# valid calls are yes for active, no for inactive; nothing else

INSERT INTO measurements (compound, assigned_class) VALUES
  ('O=C1C=CC(=O)N1Cc1ccco1', 'no'),
  ('COc1ccc(C(=O)/C=C/c2cc(-c3ccc(OC)c(OC)c3)n[nH]2)cc1OC', 'yes'),
  ('O=c1c(-c2ccc3c(c2)OCO3)coc2c(CO)c(O)ccc12', 'yes'),
  ('COC(=O)c1cc(N=C2NC(=O)/C(=C/C=C/c3ccccc3)S2)ccc1O', 'yes'),
  ('N#C/C(=C1C=C/C(=N/O)C(Cl)=C/1)c1ccc(Cl)cc1', 'no'),
  ('Cc1cc(C)cc(Nc2nccc(-c3c(-c4ccc(F)cc4)ncn3C3CCNCC3)n2)c1', 'yes'),
  ('Cc1c(Cl)cccc1NC(=O)c1sc2nc3c(cc2c1N)C(=O)CCC3', 'yes'),
  ('CCC1=C(c2ccc(OC)cc2)C(C)(C)Oc2cc(O)c(CN3CCCC3)cc21', 'no'),
  ('COc1cccc(/C=N/C(=S)NC2(C)C3CCC(C3)C2(C)C)c1O (stereo not given)', 'no'),
  ('c1ccc(Nc2ncc3c(n2)-c2cccn2CC3)cc1', 'no');

[ask] For this compound, state the assay outcome: "C#C[C@@]1(O)[C@@H](CO)O[C@@H](n2cc(Br)c3c(Cl)ccnc32)[C@@H]1O"
[reply] yes

[ask] # lookup: test call for "O=C(N/N=C/c1ccc([N+](=O)[O-])cc1)c1ccccc1Nc1cccc(C(F)(F)F)c1"
[reply] no

[ask] How was "COc1cc2ncnc(Oc3cccc(NC(=O)Nc4cc(C(C)(C)C(F)(F)F)on4)c3)c2cc1OC" classified in this test?
[reply] no

[ask] Query: recorded result category for "COc1cc(F)c(F)c(Nc2ccc(I)cc2F)c1NS(=O)(=O)C1(C[C@H](O)CO)CC1" in this test
[reply] no

[ask] Could you kindly confirm the outcome this assay logged for O=C1NC(=S)S/C1=C\N1N=C(c2ccc(Cl)cc2)CC1c1ccc(F)cc1 (stereo not given) ?
[reply] no

[ask] Per the assay record, what outcome was assigned to "O=C(CNCCO)Nc1ccc2ncnc(Nc3ccc(OCc4cccc(F)c4)c(Cl)c3)c2c1" ?
[reply] no

[ask] // param item: "C=C1C(=O)O[C@H]2[C@H]1CC/C(COC(=O)CSCSCC(=O)OC/C1=C/CC[C@@]3(C)O[C@H]3[C@H]3OC(=O)C(=C)[C@@H]3CC1)=C\CC[C@@]1(C)O[C@@H]21" ; yields the recorded call
[reply] yes

[ask] Test call for this compound, please: "Cc1ccc(S(=O)(=O)NCCNc2nccc(-c3c(-c4cccc(N)c4)nc4sccn34)n2)cc1"
[reply] no

[ask] Please indicate how the test categorized "CCc1c(Nc2ccccc2C)nc(N)[nH]c1=O" .
[reply] no

[ask] Please share the test call associated with "COc1ccc(-c2cnoc2-c2cc(OC)c3c(c2)OCCO3)cc1" .
[reply] yes

----------
Test system: HL-60(TB) leukemia
run-description: NCI-60 one-dose screen, 48 h
run-conditions: 10 µM unless noted
About 83,000 compounds went through this panel and 20% of them were active in at least one assay; those are over-represented in the sample as a whole. Calls of active or inactive are those of the source. The calls were made as follows: active = growth percent below 10; inactive = the rest.
The reply should be one of these categories: active, inactive

Some entries whose results are on file:
INSERT INTO results (molecule, test_target, assigned_class) VALUES
  ('COc1cc2cc(Oc3ccc(NC(=O)Nc4cccc(C(F)(F)F)c4)cc3)c(C)nc2cc1OCCN1CCCCC1', 'HL-60(TB) leukemia', 'active'),
  ('Cc1cc2oc(/C=C/c3ccccc3)cc(=O)c2c(C)c1Cl', 'HL-60(TB) leukemia', 'inactive'),
  ('Cc1nccc2c3ccc(OCc4cn(-c5ccccc5)nn4)cc3n(CCCc3ccccc3)c12', 'HL-60(TB) leukemia', 'inactive'),
  ('C=CCn1c(CN2CCN(c3cc4c(cc3F)c(=O)c(C(=O)O)cn4C3CC3)CC2)n[nH]c1=S', 'HL-60(TB) leukemia', 'inactive'),
  ('C/C(=C(/c1ccc(O)cc1)c1ccc(OCCN2CCCC2)cc1)c1ccccc1', 'HL-60(TB) leukemia', 'inactive'),
  ('CCOC(=O)C(Cc1ccc(OC)cc1)C(=O)OCC', 'HL-60(TB) leukemia', 'active'),
  ('COc1ccc(CN(c2ccc(C)cc2)C2OC(=O)c3ccccc32)cc1OC (centres undefined)', 'HL-60(TB) leukemia', 'inactive'),
  ('c1ccc2cc(C[n+]3ccn(CCCCCCCCCCn4cc[n+](Cc5ccc6ccccc6c5)c4)c3)ccc2c1', 'HL-60(TB) leukemia', 'active');

[ask] Each molecule tested received a call. Report the one for "CCCCCCCC(=O)SCC/C=C/[C@@H]1CC(=O)NCc2cccc(n2)C2=N[C@@](C)(CS2)C(=O)N[C@@H](C(C)C)C(=O)N1" .
[reply] inactive

----------
Overview of reported growth across a group of compounds:
Test system: OVCAR-8 ovarian
run-description: NCI-60 one-dose screen, 48 h (100 = growth as untreated, 0 = no growth, -100 = all killed)
run-conditions: 10 µM unless noted
About 83,000 compounds went through this panel and 20% of them were active in at least one assay; those are over-represented in the sample as a whole.
Enter your answer as a number in %; do not include the unit.

Past entries and their recorded results:
INSERT INTO measurements (compound, quantity_name, result_unit, reported) VALUES
  ('C=CC(=O)NC(O)C(Cl)(Cl)Cl (stereo not drawn)', 'growth', '%', 108),
  ('CC[CH2][Pb]([CH2]CC)([CH2]CC)[O]C(=O)C(F)(F)F', 'growth', '%', -69.4),
  ('CCC(C)/C=C(C)/C=C/C(=O)c1c(O)c(-c2ccc(O)cc2)c[nH]c1=O (stereo not drawn)', 'growth', '%', 51.2);

[ask] Quick check: growth of "Cc1cc(CCl)c(C)cc1CCl" ?
[reply] 61.7

[ask] What measured growth goes with CC1(CF)NC(=O)NC1=O (stereo not drawn) ?
[reply] 102

[ask] Form field: reported growth of COc1ccc2c(c1)NC1=C(C(=O)OC1)C2c1cc(OC)c(OC)c(OC)c1 (stereo not drawn)
[reply] 15.2

[ask] Which growth is reported for this compound? ClCCN(CCCl)c1nc(Cl)c(C2CC(c3ccc(Cl)cc3)=NN2c2cc(Cl)cc(Cl)c2)s1 (stereo not drawn)
[reply] 99.1

[ask] growth for N#CC1c2ccccc2C=CN1C(=O)c1ccc(N(CCCl)CCCl)cc1 (stereo not drawn) ?
[reply] 85.7

[ask] I have this compound here, O=C(CC1(O)C(=O)Nc2ccc(F)cc21)c1ccc(C(=O)NCC2CCC3(CC2)OOC2(CCCCC2)OO3)cc1 (stereo not drawn) , and I need its recorded growth.
[reply] 19.7

[ask] Reported growth for "CCN1CC2(CN(CC)C1=S)C(=O)NC(=O)NC2=O" : what is it?
[reply] 101

[ask] Recorded growth for "O=C(O)CNC(=O)c1ccccc1" , please?
[reply] 113

[ask] Look up growth for this compound: "C[C@]12CC[C@@H]3c4ccc(OC(=O)Cc5ccc(N(CCCl)CCCl)cc5)cc4CC[C@H]3[C@@H]1CC[C@@H]2OC(=O)Cc1ccc(N(CCCl)CCCl)cc1"
[reply] 109

----------
System: HL-60(TB) leukemia
run-description: NCI-60 one-dose screen, 48 h
run-conditions: 10 µM unless noted
Compounds without any hit were thinned out: in the full panel of roughly 83,000, 20% have a hit. The source made the active and inactive calls. The calls were made as follows: active = growth percent below 10; inactive = the rest.
Output constraint: value belongs to active, inactive

Here are 5 compounds together with their reported answers.
INSERT INTO measurements (smi, assigned_class) VALUES
  ('Cc1cc(I)nc2ccccc12', 'inactive'),
  ('NC(=S)N/N=C/c1ccc(OC(=O)COc2ccc(Cl)cc2)cn1', 'inactive'),
  ('NS(=O)(=O)c1ccc(CCN=C=S)cc1', 'active'),
  ('CCN(C(=O)CN1CCN(c2cc3c(cc2F)c(=O)c(C(=O)O)cn3C2CC2)CC1)c1nc(-c2ccc(OC)cc2)cs1', 'inactive'),
  ('C/C=C/CSC(C)(C)C(=O)NC', 'inactive');

[ask] What did this assay record as the result for "CC(C)C[C@H](NC(=O)Cn1ccc(Nc2ccccc2)cc1=O)B(O)O" ?
[reply] active

----------
Test system: HL-60(TB) leukemia
run-description: NCI-60 one-dose screen, 48 h (100 = growth as untreated, 0 = no growth, -100 = all killed)
run-conditions: 10 µM unless noted
Method: Growth inhibition of the HL-60(TB) human tumor cell line is measured as a screen for anti-cancer activity. Cells are grown in 96 well plates and exposed to the test compound for 48 hours. Compounds are tested at a single concentration, which is 10^-5 M for most compounds. The reported endpoint is percent growth (GI% or GIPRCNT), where numbers from 0 - 100% represent growth inhibition, and numbers from -100% - 0 represent cell death. For example, a value of 40 represents 60% growth inhibition. […]
The panel holds about 83,000 compounds, 20% with a hit somewhere; the sample as a whole holds those more often.
Classify on growth using LOW = under 20%, MID = from 20% up to 90%, HIGH = 90% and over

Below, 5 compounds whose answers are already recorded.
INSERT INTO results (compound, assigned_class) VALUES
  ('Clc1ccc(-c2cnc3nonc3n2)s1', 'MID'),
  ('OC(c1ccccc1)c1nnc(SCc2ccccc2)n1Cc1ccccc1 (configuration not stated)', 'HIGH'),
  ('COc1cc(-c2n[nH]nc2-c2ccccn2)cc(OC)c1OC', 'MID'),
  ('CCOC(=O)CNC', 'HIGH'),
  ('CC1(C)OC(=O)C(=Cc2cccc(Br)c2)C(=O)O1', 'MID');

[ask] Assign a bin to Cc1ccc(NC2CC(=O)N(c3c(C)cc(C)cc3C)C2=O)c(C)c1 (configuration not stated)
[reply] HIGH

[ask] Dear colleague, I would appreciate it if you could identify the bin for "C[N+](C)(CCOC(c1ccccc1)c1ccccc1)CC(=O)OCc1ccccc1" and reply at your convenience.
[reply] HIGH

[ask] The entry to classify is "CC(C)[C@@]12C[C@@H](OC(=O)[C@H]3CO3)[C@@](C)(O1)[C@@H]1CC[C@@H](C)[C@H]1[C@@H]2OC(=O)/C=C/c1ccccc1" ; which class holds it?
[reply] MID

[ask] # bin label for CC(=O)OC[C@H]1OC(Sc2sc(C(=O)c3ccc(C)cc3)c(N)c2-c2nc3ccccc3s2)[C@H](OC(C)=O)[C@@H](OC(C)=O)[C@@H]1OC(C)=O (some centres not stated)
[reply] MID

[ask] The entry to classify is "CCCCCCNC(=O)c1cc(NCc2cc(O)ccc2O)ccc1O" ; which class holds it?
[reply] LOW
